- Experiment summary: Plasma concentration in human HCT116 cells xenografted CD1 mouse at 150 mg/kg, po after 6 hrs
- Type: ADME, organism-based, HCT-116
- Parameters: dose 150 mg/kg, route oral
Parameter: concentration at 6 h (µM)
// units = µM; emit number, no label

Fill in concentration at 6 h for record `Nc1ccc(-c2cccs2)cc1NC(=O)c1ccc(N2CCC3(CCNC3)CC2)nc1`
11

###

- Experiment summary: Volume of distribution at steady state in dog at 0.50 mg/kg, iv
- Assay type: ADME, organism-based, Canis lupus familiaris
- Design: dose 0.5 mg/kg, route intravenous
- Condition summary: in vivo, 0.5 mg/kg, read-out: Vdss
Would you kindly list Vd for each of these molecules?
// units = L/kg; emit number, no label

Fill in Vd for record `Nc1ccc(-c2cccs2)cc1NC(=O)c1ccc(N2CCC3(CC2)COC(=O)N3)nc1`
2.3

Fill in Vd for record `Nc1ccc(-c2cccs2)cc1NC(=O)c1ccc(N2CCC3(CCNC3)CC2)nc1`
3.3

Values from ChEMBL document CHEMBL1152282
